src = paper PMC8522838

B1: SmBiT-MYC 1-190 [human] / TRRAP 2033-2283-LgBiT [not stated] (parent complex)
chain 1: MPLNVSFTNRNYDLDYDSVQPYFYCDEEENFYQQQQQSELQPPAPSEDIWKKFELLPTPPLSPSRRSGLCSPSYVAVTPFSLRGDNDGGGGSFSTADQLEMVTELLGGDMVNQSFICDPDDETFIKNIIIQDCMWSGFSAAAKLVSEKLASYQAARKDSGSPNPARGHSVCSTSSLYLQDLSAAASECID
chain 2: NSSGEGVNSVSSSIKRGLSVDSAQEVKRFRTATGAISAVFGRSQSLPGADSLLAKPIDKQHTDTVVNFLIRVACQVNDNTNTAGSPGEVLSRRCVNLLKTALRPDMWPKSELKLQWFDKLLMTVEQPNQVNYGNICTGLEVLSFLLTVLQSPAILSSFKPLQRGIAACMTCGNTKVLRAVHSLLSRLMSIFPTEPSTSSVASKYEELECLYAAVGKVIYEGLTNYEKATNANPSQLFGTLMILKSACSNNP

Variants of: B1
Assay: luminescence complementation (NanoBiT) in transfected cells; normalized for MYC expression level; parent: 100; read off a plot
result.type: percent of parent

What value of measured percent of parent is listed for chain 1 W135A ?
~35 % RLU to WT

***
What value of measured percent of parent is listed for chain 1 F138A ?
~24 % RLU to WT
